All figures here come from ChEMBL document CHEMBL3097999.

# Tested on: Escherichia coli
# assay.name: Antimicrobial activity against Escherichia coli at 0.5 mg/ml by well plate method
# Type: functional
# condition.info: read-out: DIZ
attribute.measured: zone of inhibition at 500 µg/mL

molecule: COc1ccc(-c2cn3nc(-c4ccc(NCc5ccc(F)cc5F)c([N+](=O)[O-])c4)sc3n2)cc1
result.value: 1 mm

molecule: CC(C)(C)C(=O)Nc1nnc(-c2ccc(NCc3ccc(F)cc3F)c([N+](=O)[O-])c2)s1
result.value: 3 mm

molecule: COc1ccc(-c2cn3nc(-c4ccc(N(C)C)c([N+](=O)[O-])c4)sc3n2)cc1
result.value: 3 mm

molecule: CC(C)(C)C(=O)Nc1nnc(-c2ccc(Nc3ccc(F)cc3)c([N+](=O)[O-])c2)s1
result.value: 5 mm

molecule: CC(C)(C)C(=O)Nc1nnc(-c2ccc(N3CCC(c4ccc(C(F)(F)F)cc4)CC3)c([N+](=O)[O-])c2)s1
result.value: 5 mm

molecule: COc1ccc(-c2cn3nc(-c4ccc(NCC5CCCO5)c([N+](=O)[O-])c4)sc3n2)cc1 (configuration not stated)
result.value: 10 mm

molecule: COc1ccc(-c2cn3nc(-c4ccc(N5CCN(C)CC5)c([N+](=O)[O-])c4)sc3n2)cc1
result.value: 4 mm

molecule: CCCCNc1ccc(-c2nn3cc(-c4ccc(OC)cc4)nc3s2)cc1[N+](=O)[O-]
result.value: 3 mm

molecule: CN[C@@H]1[C@H](O[C@H]2[C@H](O[C@H]3[C@H](O)[C@@H](O)[C@H](N=C(N)N)[C@@H](O)[C@@H]3N=C(N)N)O[C@@H](C)[C@]2(O)C=O)O[C@@H](CO)[C@H](O)[C@H]1O [STREPTOMYCIN]
result.value: 17 mm

molecule: CC(C)(C)C(=O)Nc1nnc(-c2ccc(N3CCCC3)c([N+](=O)[O-])c2)s1
result.value: 3 mm

molecule: CC(C)(C)C(=O)Nc1nnc(-c2ccc(NC3CCCC3)c([N+](=O)[O-])c2)s1
result.value: 4 mm

molecule: CC(C)(C)C(=O)Nc1nnc(-c2ccc(N3CCOCC3)c([N+](=O)[O-])c2)s1
result.value: 10 mm

molecule: COc1ccc(-c2cn3nc(-c4ccc(N5CCCC5)c([N+](=O)[O-])c4)sc3n2)cc1
result.value: 5 mm

molecule: COc1ccc(-c2cn3nc(-c4ccc(NC5CCCCC5)c([N+](=O)[O-])c4)sc3n2)cc1
result.value: 9 mm

molecule: CCN(CC)c1ccc(-c2nn3cc(-c4ccc(OC)cc4)nc3s2)cc1[N+](=O)[O-]
result.value: 4 mm

molecule: CC(C)(C)C(=O)Nc1nnc(-c2ccc(NC3CCCCC3)c([N+](=O)[O-])c2)s1
result.value: 8 mm

molecule: CN1CCN(c2ccc(-c3nnc(NC(=O)C(C)(C)C)s3)cc2[N+](=O)[O-])CC1
result.value: 3 mm
